# System Tested: Endoplasmic reticulum aminopeptidase 2 (Homo sapiens)
# Test Description: ERAP2 activation by compounds, dose response, selectivity assay for selective ERAP1 modulator project, biochemical, fluorescence plate reader, cherry-picked samples (AID 743319)
# Test Conditions: recombinant ERAP2, Arg-AMC cleavage fluorescence, 1 h
The source made the active and inactive calls.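 How the source made its calls: active means fitted curve reaches 200% activation at or below the highest valid dose tested for that compound; inconclusive means flat fit between 30 and 70% activation, or unreliable fit; inactive means the rest.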
Possible outcomes: label 1 (active), label 0 (inactive)

> print(dat)
                                    molecule  answer.label
 1     Cc1c(C)c2ccc(O)c(CN3CCN(C)CC3)c2oc1=O       label 1
 2  O=S(=O)(O)c1ccc(N2N=C(c3ccccc3)CC2c2ccccc2)cc1 (centres undefined)       label 1
 3     CCc1cc(=O)oc2c(CN3CCN(C)CC3)c(O)ccc12       label 1
 4  CC1CN(Cc2cc(=O)oc3cc(O)c(Cl)cc23)CC(C)O1 (centres undefined)       label 1
 5    CCCc1cc(=O)oc2c(CN(CC)CC)c(O)c(Cl)cc12       label 1
 6         Cc1cc(=O)oc2c(CN3CCCCC3)c(O)ccc12       label 1
 7  Cc1ccc(S(=O)(=O)c2cc3ccc(O)cc3oc2=O)cc1C       label 1
 8        COc1ccc(-c2cc3ccc(O)cc3oc2=O)cc1OC       label 1
 9  CCN(CC)Cc1c(O)ccc2cc(-c3nc4ccccc4n3C)c(=O)oc12       label 1
10      Cc1cc(=O)oc2c(CN3CCCC3)c(O)c(Cl)cc12       label 1
11  COC(=O)[C@@H]1[C@@H](CO)[C@@H]2Cn3c(ccc(/C=C/c4ccccc4)c3=O)[C@H]1N2C(=O)C1CCC1       label 1
12  CC(=O)N1[C@@H]2Cn3c(ccc(/C=C/c4ccccc4)c3=O)[C@H]1[C@@H](C(=O)NCC1CC1)[C@@H]2CO       label 1
13     CCN1CCN(Cc2c(O)ccc3c(C)cc(=O)oc23)CC1       label 1
14  CN1[C@@H]2Cn3c(ccc(/C=C/c4ccccc4)c3=O)[C@H]1[C@@H](C(=O)NC1CCCC1)[C@@H]2CO       label 1
15  CCNC(=O)[C@H]1[C@H](CO)[C@H]2Cn3c(ccc(/C=C/c4ccccc4)c3=O)[C@@H]1N2C(=O)C1CCCC1       label 1
16  CCC(=O)N1[C@@H]2c3ccc(/C=C/c4ccccc4)c(=O)n3C[C@H]1[C@H](CO)[C@H]2C(=O)N(C)C       label 1
17  O=C(NCC1CC1)[C@H]1[C@H](CO)[C@H]2Cn3c(ccc(/C=C/c4ccccc4)c3=O)[C@@H]1N2C(=O)C1CC1       label 1
18  C[C@@H]1CCCCO[C@@H](CN(C)C(=O)CCC(F)(F)F)[C@@H](C)CN([C@@H](C)CO)C(=O)c2cc(NS(=O)(=O)c3ccc(Cl)cc3)ccc2O1       label 0
19  CCNC(=O)[C@@H]1[C@@H](CO)[C@@H]2Cn3c(ccc(/C=C/c4ccccc4)c3=O)[C@H]1N2C(=O)C1CCCC1       label 1
